Type: in vivo, Male Sprague-Dawley rats
Settings: rats, iv, 2 min
The reader will find reported Blood uptake, 2 min values listed item by item below.
Report the value in % dose/organ with no unit label.

>>> value("CN1[C@H]2CC[C@@H]1[C@@H](C[N+]13CC[S][99Tc-]14(=[O])[S]CC[N]4CC3)[C@@H](c1ccc(Cl)cc1)C2 (single isomer, unassigned; peak b) [peak B (1.19a)]")
4.02
>>> value("COC(=O)[C@H]1[C@@H](c2ccc(Cl)cc2)C[C@@H]2CC[C@H]1N2CCC[N+]12CC[S][99Tc-]13(=[O])[S]CC[N]3CC2 (single isomer, unassigned; peak b) [peak B of (2.6a)]")
3.96
>>> value("COC(=O)[C@H]1[C@@H](c2ccc(Cl)cc2)C[C@@H]2CC[C@H]1N2CCC[N+]12CC[S][99Tc-]13(=[O])[S]CC[N]3CC2 (single isomer, unassigned; peak a) [peak A of (2.6a)]")
2.41
>>> value("CN1[C@H]2CC[C@@H]1[C@@H](C[N+]13CC[S][99Tc-]14(=[O])[S]CC[N]4CC3)[C@@H](c1ccc(Cl)cc1)C2 (single isomer, unassigned; peak a) [Peak A (1.19a)]")
1.98

Query molecule follows.
Requested read-out: Blood uptake, 2 min. Entry: COC(=O)C1C(c2ccc(Cl)cc2)CC2CCC1N2CC[S][99Tc-]12(=[O])[S]CC[N+]1(C)CC[S]2 (centres unmarked)
4.72

###

Assay type: in vivo, Male Sprague-Dawley rats
Conditions: rats, iv, 2 min
Rule: rule met for Lung uptake, 2 min not less than 10 % dose/organ, rule not met for anything less.

Examples with answers:
>>> labelvalue("CN1[C@H]2CC[C@@H]1[C@@H](C[N+]13CC[S][99Tc-]14(=[O])[S]CC[N]4CC3)[C@@H](c1ccc(Cl)cc1)C2 (single isomer, unassigned; peak a) [Peak A (1.19a)]")
"rule not met"
>>> labelvalue("COC(=O)[C@H]1[C@@H](c2ccc(Cl)cc2)C[C@@H]2CC[C@H]1N2CCC[N+]12CC[S][99Tc-]13(=[O])[S]CC[N]3CC2 (single isomer, unassigned; peak b) [peak B of (2.6a)]")
"rule met"
>>> labelvalue("CN1[C@H]2CC[C@@H]1[C@@H](C[N+]13CC[S][99Tc-]14(=[O])[S]CC[N]4CC3)[C@@H](c1ccc(Cl)cc1)C2 (single isomer, unassigned; peak b) [peak B (1.19a)]")
"rule not met"

Record COC(=O)C1C(c2ccc(Cl)cc2)CC2CCC1N2CC[S][99Tc-]12(=[O])[S]CC[N+]1(C)CC[S]2 (centres unmarked) ; criterion: Lung uptake, 2 min no lower than 10 % dose/organ. Met?
rule not met

Record COC(=O)[C@H]1[C@@H](c2ccc(Cl)cc2)C[C@@H]2CC[C@H]1N2CCC[N+]12CC[S][99Tc-]13(=[O])[S]CC[N]3CC2 (single isomer, unassigned; peak a) [peak A of (2.6a)] ; criterion: Lung uptake, 2 min no lower than 10 % dose/organ. Met?
rule met

###

Target: dopamine transporters (Rattus norvegicus, UniProt P23977)
Sequence (P23977 whole entry): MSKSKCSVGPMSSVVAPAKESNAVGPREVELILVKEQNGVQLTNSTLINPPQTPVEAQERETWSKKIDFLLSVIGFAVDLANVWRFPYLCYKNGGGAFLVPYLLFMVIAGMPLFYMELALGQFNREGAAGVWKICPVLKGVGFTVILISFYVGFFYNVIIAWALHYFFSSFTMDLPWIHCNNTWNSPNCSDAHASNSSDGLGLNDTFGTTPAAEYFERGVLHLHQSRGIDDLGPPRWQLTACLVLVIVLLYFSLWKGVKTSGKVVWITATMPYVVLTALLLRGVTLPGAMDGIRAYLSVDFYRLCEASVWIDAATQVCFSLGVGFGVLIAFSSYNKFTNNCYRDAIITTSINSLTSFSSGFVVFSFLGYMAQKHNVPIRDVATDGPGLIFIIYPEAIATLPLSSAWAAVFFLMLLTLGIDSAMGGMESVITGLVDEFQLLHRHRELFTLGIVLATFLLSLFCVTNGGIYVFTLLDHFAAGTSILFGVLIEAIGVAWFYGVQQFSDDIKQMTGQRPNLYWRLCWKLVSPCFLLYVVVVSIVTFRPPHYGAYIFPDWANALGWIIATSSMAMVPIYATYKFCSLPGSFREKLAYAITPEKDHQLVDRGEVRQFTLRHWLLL
Assay type: in vivo, Male Sprague-Dawley rats
Conditions: rats, iv, 30 min
The reader will find reported ST/CB ratio, 30 min values listed item by item below.

Below: 3 molecules and their reported ST/CB ratio, 30 min.
>>> value("CN1[C@H]2CC[C@@H]1[C@@H](C[N+]13CC[S][99Tc-]14(=[O])[S]CC[N]4CC3)[C@@H](c1ccc(Cl)cc1)C2 (stereo partly shown) [Compound 1.19a]")
"2.04 ± 0.18"
>>> value("CN1[C@H]2CC[C@@H]1[C@@H](C[N+]13CC[S][99Tc-]14(=[O])[S]CC[N]4C(=O)C3)[C@@H](c1ccc(Cl)cc1)C2 (stereo partly shown) [Compound 1.21]")
1.17
>>> value("CN1[C@H]2CC[C@@H]1[C@@H](C(=O)[N+]13CC[S][99Tc-]14(=[O])[S]CC[N]4CC3)[C@@H](c1ccc(Cl)cc1)C2 (stereo partly shown) [Compound 1.19b]")
2.78

Query molecule follows.
Requested read-out: ST/CB ratio, 30 min. Entry: COC(=O)C1C(c2ccc(Cl)cc2)CC2CCC1N2CC[S][99Tc-]12(=[O])[S]CC[N+]1(C)CC[S]2 (stereo not shown) [Compound 3.25]
2.2

###

The reader will find reported Brain uptake, 60 min values listed item by item below.
Type: in vivo, Male Sprague-Dawley rats
Details: rats, iv, 60 min
Experimental: Male Sprague-Dawley rats (225-300 g) allowed free access to food and water were used for in vivo biodistribution studies. Kung, 1984, supra; Kung, 1985, supra. […] The organs of interest were removed and weighed, and the radioactivity was counted with an automatic gamma counter (Packard 5000). The percentage dose per organ was calculated by a comparison of the tissue counts to suitably diluted aliquots of the injected material. […]
Report the value in % dose/organ with no unit label.

Requested read-out: Brain uptake, 60 min. Entry: CN1[C@H]2CC[C@@H]1[C@@H](C[N+]13CC[S][99Tc-]14(=[O])[S]CC[N]4CC3)[C@@H](c1ccc(Cl)cc1)C2 (single isomer, unassigned; peak b) [peak B (1.19a)]
0.12

Requested read-out: Brain uptake, 60 min. Entry: COC(=O)C1C(c2ccc(Cl)cc2)CC2CCC1N2CC[S][99Tc-]12(=[O])[S]CC[N+]1(C)CC[S]2 (stereo not shown)
0.046

Requested read-out: Brain uptake, 60 min. Entry: CN1[C@H]2CC[C@@H]1[C@@H](C(=O)[N+]13CC[S][99Tc-]14(=[O])[S]CC[N]4CC3)[C@@H](c1ccc(Cl)cc1)C2 (stereo partly shown) [Compound 1.19b]
0.11

Requested read-out: Brain uptake, 60 min. Entry: CN1[C@H]2CC[C@@H]1[C@@H](C(=O)[N+]13CC[S][99Tc-]14(=[O])[S]CC[N]4CC3)[C@@H](c1ccc(F)cc1)C2 (stereo partly shown) [Compound 1.20b]
0.07

Requested read-out: Brain uptake, 60 min. Entry: CN1[C@H]2CC[C@@H]1[C@@H](C[N+]13CC[S][99Tc-]14(=[O])[S]CC[N]4CC3)[C@@H](c1ccc(Br)cc1)C2 (stereo partly shown) [Compound 1.20c]
0.18

Requested read-out: Brain uptake, 60 min. Entry: CN1[C@H]2CC[C@@H]1[C@@H](C[N+]13CC[S][99Tc-]14(=[O])[S]CC[N]4CC3)[C@@H](c1ccc(Cl)cc1)C2 (single isomer, unassigned; peak a) [Peak A (1.19a)]
0.21

Requested read-out: Brain uptake, 60 min. Entry: CN1[C@H]2CC[C@@H]1[C@@H](C[N+]13CC[S][99Tc-]14(=[O])[S]CC[N]4CC3)[C@@H](c1ccc(F)cc1)C2 (stereo partly shown) [Compound 1.20a]
0.098

###

Type: in vivo, Male Sprague-Dawley rats
Details: rats, iv, 2 min
The reader will find reported Heart uptake, 2 min values listed item by item below.
Report the value in % dose/organ with no unit label.

Below: 4 molecules and their reported Heart uptake, 2 min.
>>> value("CN1[C@H]2CC[C@@H]1[C@@H](C[N+]13CC[S][99Tc-]14(=[O])[S]CC[N]4CC3)[C@@H](c1ccc(Cl)cc1)C2 (single isomer, unassigned; peak b) [peak B (1.19a)]")
1.28
>>> value("COC(=O)C1C(c2ccc(Cl)cc2)CC2CCC1N2CC[S][99Tc-]12(=[O])[S]CC[N+]1(C)CC[S]2 (centres unmarked) [Compound 3.25]")
1.46
>>> value("CN1[C@H]2CC[C@@H]1[C@@H](C[N+]13CC[S][99Tc-]14(=[O])[S]CC[N]4CC3)[C@@H](c1ccc(Cl)cc1)C2 (single isomer, unassigned; peak a) [Peak A (1.19a)]")
1.76
>>> value("COC(=O)[C@H]1[C@@H](c2ccc(Cl)cc2)C[C@@H]2CC[C@H]1N2CCC[N+]12CC[S][99Tc-]13(=[O])[S]CC[N]3CC2 (single isomer, unassigned; peak b) [peak B of (2.6a)]")
0.70

Query molecule follows.
Requested read-out: Heart uptake, 2 min. Entry: COC(=O)[C@H]1[C@@H](c2ccc(Cl)cc2)C[C@@H]2CC[C@H]1N2CCC[N+]12CC[S][99Tc-]13(=[O])[S]CC[N]3CC2 (single isomer, unassigned; peak a) [peak A of (2.6a)]
0.79

###

Type: in vivo, Male Sprague-Dawley rats
Details: rats, iv, 2 min
Method: Male Sprague-Dawley rats (225-300 g) allowed free access to food and water were used for in vivo biodistribution studies. Kung, 1984, supra; Kung, 1985, supra. […] The organs of interest were removed and weighed, and the radioactivity was counted with an automatic gamma counter (Packard 5000). The percentage dose per organ was calculated by a comparison of the tissue counts to suitably diluted aliquots of the injected material. […]
The reader will find reported Spleen uptake, 2 min values listed item by item below.
Report the value in % dose/organ with no unit label.

>>> value("COC(=O)[C@H]1[C@@H](c2ccc(Cl)cc2)C[C@@H]2CC[C@H]1N2CCC[N+]12CC[S][99Tc-]13(=[O])[S]CC[N]3CC2 (single isomer, unassigned; peak b) [peak B of (2.6a)]")
0.42

Requested read-out: Spleen uptake, 2 min. Entry: COC(=O)[C@H]1[C@@H](c2ccc(Cl)cc2)C[C@@H]2CC[C@H]1N2CCC[N+]12CC[S][99Tc-]13(=[O])[S]CC[N]3CC2 (single isomer, unassigned; peak a) [peak A of (2.6a)]
0.42

Requested read-out: Spleen uptake, 2 min. Entry: CN1[C@H]2CC[C@@H]1[C@@H](C[N+]13CC[S][99Tc-]14(=[O])[S]CC[N]4CC3)[C@@H](c1ccc(Cl)cc1)C2 (single isomer, unassigned; peak a) [Peak A (1.19a)]
0.27

Requested read-out: Spleen uptake, 2 min. Entry: COC(=O)C1C(c2ccc(Cl)cc2)CC2CCC1N2CC[S][99Tc-]12(=[O])[S]CC[N+]1(C)CC[S]2 (centres unmarked)
0.36

Requested read-out: Spleen uptake, 2 min. Entry: CN1[C@H]2CC[C@@H]1[C@@H](C[N+]13CC[S][99Tc-]14(=[O])[S]CC[N]4CC3)[C@@H](c1ccc(Cl)cc1)C2 (single isomer, unassigned; peak b) [peak B (1.19a)]
0.27

These data points were gathered from patent US6241963A.
